From: patent US20220056043A1

test.target: CYP3A4 (Homo sapiens)
Construct: purchased
Sequence (P08684 whole entry): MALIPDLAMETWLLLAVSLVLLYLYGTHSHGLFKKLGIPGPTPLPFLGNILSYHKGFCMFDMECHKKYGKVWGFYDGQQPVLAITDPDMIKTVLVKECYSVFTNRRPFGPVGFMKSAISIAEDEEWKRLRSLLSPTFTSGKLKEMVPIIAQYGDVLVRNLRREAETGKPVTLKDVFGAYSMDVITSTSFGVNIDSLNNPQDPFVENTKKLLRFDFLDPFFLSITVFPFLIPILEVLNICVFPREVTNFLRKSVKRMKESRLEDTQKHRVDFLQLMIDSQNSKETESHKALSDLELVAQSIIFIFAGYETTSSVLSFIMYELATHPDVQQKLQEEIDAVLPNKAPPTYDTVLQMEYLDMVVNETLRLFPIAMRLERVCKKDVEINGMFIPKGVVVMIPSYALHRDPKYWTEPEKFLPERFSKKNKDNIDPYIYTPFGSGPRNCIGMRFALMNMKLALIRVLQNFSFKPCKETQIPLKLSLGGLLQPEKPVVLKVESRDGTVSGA
assay.summary: CYP enzyme inhibition test, Vivid CYP3A4 Red Screening Kit
Type: in vitro ADME
Experimental: Experimental Example 6: CYP Enzyme Inhibition Test CYP450 is the most important enzyme system in drug metabolism. The enzymes involved in metabolism interact with drugs, and the most important ones are CYP1A2, CYP2D6 and CYP3A4. P450-Glo™ CYP1A2 Screening System, Vivid® CYP2D6 Cyan Screening Kit and Vivid® CYP3A4 Red Screening Kit were used in this test, and the inhibitory effects of the compounds on CYP1A2, CYP2D6 and CYP3A4 were determined according to the instructions of the kit.
endpoint.name: IC50

A selection of reference data follows.
>>> result("Nc1cc(N[C@@H]2CC[C@H](O)C2)c2sc(-c3ccn[nH]3)cc2n1")
"> 10 µM"
>>> result("COC(C)(C)CNc1cc(N)nc2cc(-c3ccn[nH]3)sc12")
"> 10 µM"
>>> result("CC(C)(CO)CNc1cc(N)nc2cc(-c3ccn[nH]3)sc12")
"> 10 µM"
>>> result("C[C@@H]1CN(CCNc2cc(N)nc3cc(-c4ccn[nH]4)sc23)C[C@@H](C)O1")
"> 10 µM"

[in] Identify measured IC50 corresponding to Nc1cc(NC2COC2)c2sc(-c3ccn[nH]3)cc2n1
[out] > 10 µM

[in] Identify measured IC50 corresponding to C[C@@H](CCO)Nc1cc(N)nc2cc(-c3ccn[nH]3)sc12
[out] > 10 µM

[in] Identify measured IC50 corresponding to Nc1cc(NC2CCC(O)CC2)c2sc(-c3ccn[nH]3)cc2n1 (stereo not shown)
[out] > 10 µM

---

test.target: hNLRP3 inflammasome (Homo sapiens)
Construct: endogenous in cells; host or cells: THP-1 cells, PMA-differentiated
assay.summary: Agonistic effect on the expression of IL-1β in THP-1 cells after PMA-induced differentiation (HTRF)
Format: cell-based
condition.details: IL-1β level, PMA-differentiated THP-1 cells, 6 hours
endpoint.name: EC50 (µM)

>>> number("Nc1cc(N[C@H]2[C@@H]3CNC[C@@H]32)c2sc(-c3ccn[nH]3)cc2n1 [Compound 142]")
0.14

A = CN1CC[C@H](Nc2cc(N)nc3cc(-c4ccn[nH]4)sc23)C1 [Compound 51]
B = Cc1c(-c2ccn[nH]2)sc2c(NC[C@@H]3CCCO3)cc(N)nc12 [Compound 157]
C = Nc1cc(N[C@@H]2CC[C@H](O)C2)c2sc(-c3ccn[nH]3)cc2n1 [Compound 31]
D = Nc1cc(NC[C@@H]2CCCO2)c2sc(-c3ccn[nH]3)cc2n1 [Compound 105]
[in] Falling order of EC50, please. Answer format: the labels, ordered as requested.
[out] B, A, C, D
(B: 3.47 µM, A: 0.33 µM, C: 0.11 µM, D: 0.03 µM)

---

test.target: hERG potassium channel (Homo sapiens)
Sequence (Q12809 whole entry): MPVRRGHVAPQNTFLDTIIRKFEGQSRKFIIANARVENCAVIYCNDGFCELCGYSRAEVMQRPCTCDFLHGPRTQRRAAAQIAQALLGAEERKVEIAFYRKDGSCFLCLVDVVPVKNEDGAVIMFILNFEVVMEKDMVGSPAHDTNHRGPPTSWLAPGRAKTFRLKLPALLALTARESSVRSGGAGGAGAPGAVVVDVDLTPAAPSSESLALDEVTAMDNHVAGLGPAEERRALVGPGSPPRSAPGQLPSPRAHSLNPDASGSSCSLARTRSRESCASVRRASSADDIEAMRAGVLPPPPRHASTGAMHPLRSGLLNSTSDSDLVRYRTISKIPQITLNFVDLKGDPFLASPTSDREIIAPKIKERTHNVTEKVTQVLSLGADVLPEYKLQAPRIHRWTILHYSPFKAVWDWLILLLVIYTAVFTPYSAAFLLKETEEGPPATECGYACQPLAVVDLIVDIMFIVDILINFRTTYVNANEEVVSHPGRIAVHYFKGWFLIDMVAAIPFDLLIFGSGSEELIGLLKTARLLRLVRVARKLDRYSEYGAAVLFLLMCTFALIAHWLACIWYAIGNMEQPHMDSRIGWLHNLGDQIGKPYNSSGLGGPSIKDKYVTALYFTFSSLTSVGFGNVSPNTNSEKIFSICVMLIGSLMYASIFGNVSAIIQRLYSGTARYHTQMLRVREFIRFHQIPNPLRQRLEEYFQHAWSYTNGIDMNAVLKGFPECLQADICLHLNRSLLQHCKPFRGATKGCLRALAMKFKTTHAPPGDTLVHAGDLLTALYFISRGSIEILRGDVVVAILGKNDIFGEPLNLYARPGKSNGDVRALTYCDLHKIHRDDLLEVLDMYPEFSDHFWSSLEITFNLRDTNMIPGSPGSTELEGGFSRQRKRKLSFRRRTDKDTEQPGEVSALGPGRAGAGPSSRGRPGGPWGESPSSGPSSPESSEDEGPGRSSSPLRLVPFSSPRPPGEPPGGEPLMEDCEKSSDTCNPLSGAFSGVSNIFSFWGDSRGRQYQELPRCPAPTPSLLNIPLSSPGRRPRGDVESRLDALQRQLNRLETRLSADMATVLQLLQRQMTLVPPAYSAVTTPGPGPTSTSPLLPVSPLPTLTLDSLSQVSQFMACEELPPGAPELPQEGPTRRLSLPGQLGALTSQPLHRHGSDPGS
assay.summary: in vitro
Below, each entry is listed alongside its reported inhibition at 10 μM.
Give the value, in units of %, as a plain number.

>>> number("CC(C)(CO)CNc1cc(N)nc2cc(-c3ccn[nH]3)sc12")
8.26
>>> number("Nc1cc(NCC2CCOCC2)c2sc(-c3ccn[nH]3)cc2n1")
11.7
>>> number("Nc1cc(NCC(F)F)c2sc(-c3ccn[nH]3)cc2n1")
18.5
>>> number("COCCNc1cc(N)nc2cc(-c3ccn[nH]3)sc12")
5.42

[in] Identify measured inhibition at 10 μM corresponding to Nc1cc(N[C@@H]2CC[C@@H](O)C2)c2sc(-c3ccn[nH]3)cc2n1
[out] 1.91

---

test.target: hNLRP3 inflammasome (Homo sapiens, UniProt Q96P20)
Construct: endogenous in cells; host or cells: THP-1 cells, PMA-differentiated
Sequence (Q96P20 whole entry): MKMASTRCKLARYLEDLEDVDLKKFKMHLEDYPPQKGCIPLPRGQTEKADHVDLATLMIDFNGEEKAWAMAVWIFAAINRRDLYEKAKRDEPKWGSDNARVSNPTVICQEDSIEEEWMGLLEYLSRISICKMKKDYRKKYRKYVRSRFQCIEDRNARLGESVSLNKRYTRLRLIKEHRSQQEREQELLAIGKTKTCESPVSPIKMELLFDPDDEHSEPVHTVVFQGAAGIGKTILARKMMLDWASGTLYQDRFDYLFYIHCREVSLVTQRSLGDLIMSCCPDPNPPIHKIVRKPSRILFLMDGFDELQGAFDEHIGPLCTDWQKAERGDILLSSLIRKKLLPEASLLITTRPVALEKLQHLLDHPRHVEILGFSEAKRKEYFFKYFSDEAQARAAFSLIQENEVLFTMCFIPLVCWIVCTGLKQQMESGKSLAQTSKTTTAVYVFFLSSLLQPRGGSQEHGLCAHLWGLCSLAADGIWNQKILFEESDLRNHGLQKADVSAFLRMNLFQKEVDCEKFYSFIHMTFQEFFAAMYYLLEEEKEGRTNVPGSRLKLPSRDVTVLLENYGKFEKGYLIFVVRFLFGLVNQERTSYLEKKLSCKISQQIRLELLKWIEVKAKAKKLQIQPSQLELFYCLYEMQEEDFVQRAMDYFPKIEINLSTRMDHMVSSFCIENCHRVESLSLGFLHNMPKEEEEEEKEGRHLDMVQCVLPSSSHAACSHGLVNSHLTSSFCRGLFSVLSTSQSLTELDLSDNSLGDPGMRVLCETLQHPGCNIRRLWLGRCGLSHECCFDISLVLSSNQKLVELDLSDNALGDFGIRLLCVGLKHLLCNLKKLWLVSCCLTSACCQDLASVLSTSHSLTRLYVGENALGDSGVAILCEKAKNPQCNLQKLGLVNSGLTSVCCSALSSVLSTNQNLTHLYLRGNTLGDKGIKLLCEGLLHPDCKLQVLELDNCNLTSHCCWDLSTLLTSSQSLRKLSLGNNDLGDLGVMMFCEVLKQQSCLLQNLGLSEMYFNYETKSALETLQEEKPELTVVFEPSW
assay.summary: Agonistic effect on the expression of IL-1β in THP-1 cells after PMA-induced differentiation (HTRF)
Type: cell-based
condition.details: IL-1β level, PMA-differentiated THP-1 cells, 6 hours
endpoint.name: EC50 (µM)

>>> number("Nc1cc(NCC2CCC2)c2sc(-c3ccn[nH]3)cc2n1 [Compound 126]")
0.35

1 = Nc1cc(NC2COC2)c2sc(-c3ccn[nH]3)cc2n1 [Compound 112]
2 = C[C@@H]1CN(c2cc(N)nc3cc(-c4ccn[nH]4)sc23)C[C@@H](C)O1 [Compound 148]
[in] I would appreciate it if you could say which entry, 1 or 2 , has the lower EC50 value. Answer by quoting the chosen item's label.
[out] 2
